Taken from paper PMC9953095.

test: Metabolic stability with human liver microsomes; assay type: in vitro ADME; settings: after 1 h of incubation with human liver microsomes, 37 °C, NADPH; further: tested at 200 µM
This listing pairs compounds with measured Metabolic Stability, % compound remaining.
MEASUREMENT_LABEL: Metabolic Stability, % compound remaining (%)

- LINE_NOTATION: "COc1ccc(Nc2nc(-c3ccncc3)nc3ccccc23)cc1"
  UNIT_NAME: "%"
  VAL: 83
- LINE_NOTATION: "CCc1ccc(Nc2nc(-c3ccncc3)nc3ccccc23)cc1"
  UNIT_NAME: "%"
  VAL: 87
- LINE_NOTATION: "[N-]=[N+]=Nc1ccc(Nc2nc(-c3ccncc3)nc3ccccc23)cc1"
  UNIT_NAME: "%"
  VAL: 86
- LINE_NOTATION: "CCc1cccc(Nc2nc(-c3ccncc3)nc3ccccc23)c1"
  UNIT_NAME: "%"
  VAL: 91
- LINE_NOTATION: "CC(C)c1ccc(Nc2nc(-c3ccncc3)nc3ccccc23)cc1"
  UNIT_NAME: "%"
  VAL: 75
- LINE_NOTATION: "CCCc1ccc(Nc2nc(-c3ccncc3)nc3ccccc23)cc1"
  UNIT_NAME: "%"
  VAL: 80
